Below, each entry is listed with its recorded log10 Ki.
assay: Displacement of [3H]flumazenil from benzodiazepine receptor in bovine brain membranes; format: cell membranes, Bos taurus
Hi team, quick reminder: these entries are log10 of Ki (nM).

Some solved entries appear below for comparison.
[[record]]
molecular_string = "CCCCNC(=O)C(=O)c1c[nH]c2ccc([N+](=O)[O-])cc12"
experimental_result = 2.04

[[record]]
molecular_string = "O=C1CN=C(c2ccccc2Cl)c2cc([N+](=O)[O-])ccc2N1"
experimental_result = -0.07


Could you tell me which log10 Ki is on file for CCCCCCNC(=O)C(=O)c1c[nH]c2ccccc12 ?
3.22

Name the recorded log10 Ki for C#Cc1ccc(CNC(=O)C(=O)c2c[nH]c3ccccc23)cc1 .
2.21

Endpoint output: log10 Ki of O=C(NCc1ccccc1)C(=O)c1c[nH]c2ccc([N+](=O)[O-])cc12 . Value?
2.07
